B1: BTBD10 (parent)
chain: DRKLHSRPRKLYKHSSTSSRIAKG

Variants of: B1
Assay: protein stability index of a GFP-peptide fusion (GPS, HEK-293T) (PSI 1-6); higher = more stable;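 also: lentivirally expressed fusions sorted by FACS into six bins by GFP to DsRed ratio, PSI derived from sequencing read proportions per bin multiplied by bin number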
Details: c terminus: a fixed tail appended
Below, each entry is listed with its recorded protein stability index.
value_kind: protein stability index

INSERT INTO results (sequence_content, measured_number) VALUES
  ('DRKLHSRPRKLWKHSSTSSRIAKG [Y12W]', 4.1),
  ('DRKLHSRPRKLYKHSSTSSRIATG [K23T]', 3.58),
  ('DRKLHSRPRKLYKHSSTDSRIAKG [S18D]', 4.13),
  ('DRKLHSRYRKLYKHSSTSSRIAKG [P8Y]', 2.82),
  ('DRKLHSRPAKLYKHSSTSSRIAKG [R9A]', 4.1),
  ('DRKLHSRPRKLYKHSSTSSRKAKG [I21K]', 4.28),
  ('DIKLHSRPRKLYKHSSTSSRIAKG [R2I]', 2.66),
  ('DRKLHSRPRKLYKHFSTSSRIAKG [S15F]', 3),
  ('RRKLHSRPRKLYKHSSTSSRIAKG [D1R]', 3.05),
  ('DRKLNSRPRKLYKHSSTSSRIAKG [H5N]', 5.44),
  ('DRKLHSRPRKLYKHSSTESRIAKG [S18E]', 4.38),
  ('DKKLHSRPRKLYKHSSTSSRIAKG [R2K]', 3.83),
  ('DRKLHSRPRKLYHHSSTSSRIAKG [K13H]', 3.65),
  ('DRKLHSRPRKLYKHSSTSSRIAWG [K23W]', 3.04),
  ('DRKLESRPRKLYKHSSTSSRIAKG [H5E]', 4.09),
  ('DRKLHSRPRKLYKHSSTSSRICKG [A22C]', 3.11),
  ('DRKLHSRPRKLYKHQSTSSRIAKG [S15Q]', 3.85),
  ('DRKLFSRPRKLYKHSSTSSRIAKG [H5F]', 4.43),
  ('DRKLHSRPRKLYKHSSTSSLIAKG [R20L]', 3.94),
  ('DRKLHSRPRKLYKHSSTSSRIIKG [A22I]', 3.58),
  ('DRKLHSRPRTLYKHSSTSSRIAKG [K10T]', 3.58),
  ('GRKLHSRPRKLYKHSSTSSRIAKG [D1G]', 3.47);
